The molecules below have reported IC50 for SYK (Homo sapiens).
metric name: IC50 (nM)

a: Cc1cc(Nc2nccc(-n3cc(CN4CC[C@@H](O)C4)c(C)n3)n2)cc(C)c1OCCN1CCCC1
b: Cc1cn(-c2ccnc(Nc3ccc4c(ccn4C)c3)n2)cc1CN1CC(O)C1
Hey, between a and b which has a smaller measured IC50? Please identify the chosen entry by its label.
b
(b: 3.5 nM, a: 5.9 nM)

----------
# target of assay: UniProt O60674
# Sequence (O60674 826-1132 limits assumed): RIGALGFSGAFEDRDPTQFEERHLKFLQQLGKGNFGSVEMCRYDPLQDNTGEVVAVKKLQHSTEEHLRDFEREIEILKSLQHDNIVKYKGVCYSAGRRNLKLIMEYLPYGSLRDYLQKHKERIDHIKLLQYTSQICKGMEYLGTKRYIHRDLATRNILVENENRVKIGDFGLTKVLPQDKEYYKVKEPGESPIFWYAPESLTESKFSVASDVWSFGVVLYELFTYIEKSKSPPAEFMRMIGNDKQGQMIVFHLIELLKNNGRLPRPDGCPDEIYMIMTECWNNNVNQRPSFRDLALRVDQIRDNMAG
# test method notes: Kinase inhibition assay: JAK2
# Format: biochemical
# Design: truncated human FAK, RET, FLT3, JAK2, and LRRK2; purchased Carna Biosciences
Counter-ions that a name gives are not always drawn.
metric name: IC50 (nM)

// below: answered molecules
COc1cc(Nc2ncc(C)c(-n3cc(C)c(CN4CCCN(C(=O)C(C)(C)C)CC4)c3)n2)cc(OC)c1OC [Compound 97] | 65.1
COc1cc(Nc2ncc(C)c(-n3cc(C)c(CN4CC(O)C4)c3)n2)cc(OC)c1OC [Compound 91] | 36.5
Cc1cn(-c2nc(Nc3cc(C)c(OCCO)c(C)c3)ncc2C)cc1CN(C)C [Compound 121] | 2.5
COc1cc(Nc2ncc(C)c(-n3cc(C)c(CN4CCCNCC4)c3)n2)cc(OC)c1OC [Compound 96, trihydrochloride] | 3.9

a: COc1cc(Nc2ncc(C)c(-n3cc(C)c(CN4CCN(CCO)CC4)c3)n2)cc(OC)c1OC [Compound 40]
b: COc1cc(Nc2ncc(C)c(-n3cc(C)c(CN4CC(OC(=O)C(C)(C)C)C4)c3)n2)cc(OC)c1OC [Compound 93]
c: COc1cc(Nc2ncc(C)c(-n3cc(C)c(CO)c3)n2)cc(OC)c1OC [Compound 21]
d: Cc1cn(-c2nc(Nc3ccc(N4CC[C@H](O)C4)c(C)c3)ncc2C)cc1CO [Compound 24]
Kindly order the items shown according to IC50, from the highest value down. Please list the labels in the order you were asked to rank them.
b, c, a, d

----------
# target of assay: FAK (Homo sapiens)
# Construct: truncated human FAK, RET, FLT3, JAK2, and LRRK2; purchased Carna Biosciences
# Sequence (Q05397 376-1052 limits assumed): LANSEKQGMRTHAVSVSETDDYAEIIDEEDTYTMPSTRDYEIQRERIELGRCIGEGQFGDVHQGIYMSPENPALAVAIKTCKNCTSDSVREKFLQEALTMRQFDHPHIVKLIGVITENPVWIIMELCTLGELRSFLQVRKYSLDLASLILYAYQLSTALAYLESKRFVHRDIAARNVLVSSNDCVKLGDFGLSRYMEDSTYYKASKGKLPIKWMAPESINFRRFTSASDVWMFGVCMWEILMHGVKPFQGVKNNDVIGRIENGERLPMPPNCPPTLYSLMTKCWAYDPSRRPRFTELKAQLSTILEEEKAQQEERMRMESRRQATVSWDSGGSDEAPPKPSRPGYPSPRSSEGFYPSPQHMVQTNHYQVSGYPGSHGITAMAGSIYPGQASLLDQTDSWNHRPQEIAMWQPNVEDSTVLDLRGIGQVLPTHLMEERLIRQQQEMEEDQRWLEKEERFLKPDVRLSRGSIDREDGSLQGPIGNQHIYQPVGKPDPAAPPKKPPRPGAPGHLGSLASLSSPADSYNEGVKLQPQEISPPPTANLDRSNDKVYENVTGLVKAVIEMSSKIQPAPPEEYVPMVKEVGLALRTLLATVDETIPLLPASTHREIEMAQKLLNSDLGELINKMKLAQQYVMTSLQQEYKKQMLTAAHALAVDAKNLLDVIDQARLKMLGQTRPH
# test method notes: Kinase inhibition assay: FAK
# Type: biochemical
# study conditions: at 1 μM concentration
metric name: inhibition at 1 µM (%)

// below: answered molecules
Cc1cc(C)cc(Nc2nccc(-n3cc(C)c(CN4CC[C@@H](O)C4)c3)n2)c1 | 13.9
COc1cc(Nc2ncc(F)c(-n3cc(C)c(CO)c3)n2)cc(OC)c1 | 34.1

a: Cc1cc(C)cc(Nc2ncc(F)c(-n3cc(C)c(CO)c3)n2)c1
b: Cc1cc(C)cc(Nc2ncc(F)c(-n3cc(C(=O)N4CC[C@@H](O)C4)c(C)n3)n2)c1
c: COc1cc(Nc2ncc(C)c(-n3cc(C)c(CO)c3)n2)cc(OC)c1OC
Arrange items by their inhibition at 1 µM values in increasing order. Please list the labels in the order you were asked to rank them.
b, a, c
(b: 17.7%, a: 36.9%, c: 70.7%)

----------
# target of assay: SYK (Homo sapiens)
# Construct: Purified full-length human SYK, ZAP70, PIM1, PYK2; purchased Carna Biosciences
# test method notes: Kinase inhibition assay: SYK
# Type: biochemical
# study conditions: at 1 μM concentration
metric name: inhibition at 1 µM (%)

// below: answered compounds
COc1cc(Nc2ncc(C)c(-n3cc(C)c(CO)c3)n2)cc(OC)c1OC | 96.4
Cc1cc(C)cc(Nc2nccc(-n3cc(C)c(CN4CC[C@@H](O)C4)c3)n2)c1 | 99.3
Cc1cc(C)cc(Nc2ncc(F)c(-n3cc(C)c(CO)c3)n2)c1 | 82.7

P: COc1cc(Nc2ncc(F)c(-n3cc(C)c(CO)c3)n2)cc(OC)c1
Q: Cc1cc(C)cc(Nc2ncc(F)c(-n3cc(C(=O)N4CC[C@@H](O)C4)c(C)n3)n2)c1
Select the item with the higher value of inhibition at 1 µM from the options P and Q listed. Please identify the chosen entry by its label.
P
(P: 80.7%, Q: 41.8%)
